target_entity: recombinant human OX40 (Acro Biosystems, cat. no. OXO-H5224) (human) (UniProt P43489)
Sequence (P43489 29-216 limits assumed): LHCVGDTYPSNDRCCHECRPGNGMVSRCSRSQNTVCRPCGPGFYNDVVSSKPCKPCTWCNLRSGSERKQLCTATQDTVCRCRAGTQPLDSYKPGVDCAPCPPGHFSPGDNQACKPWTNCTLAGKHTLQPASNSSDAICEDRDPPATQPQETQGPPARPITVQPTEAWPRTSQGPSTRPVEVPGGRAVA
procedure_text: BLI cross-block; competitor (immobilized 1st Ab): IgG1-CD134-GBR830
The reader will find reported corrected association response values listed item by item below.
Kindly answer with a numeric value in nm, unit omitted.

Field corrected association response (entry IgG1-CD134-GBR830 (antibody, INN chains, looked up, V domains shown, IgG1) VH: QVTLKESGPALVKPTQTLTLTCSFSGFSLSTSGMGVGWIRQPPGKALEWIAHIWWDDDKYYNTALKTRLTISKDTSKNQVVLTMTNMDPVDTATYYCARIDWDGFAYWGQGTLVTVSS VL: EIVLTQSPATLSLSPGERATLSCRASSSVSYMHWYQQKPGQAPRPWIYATSNRATGIPARFSGSGSGTDYTLTISSLEPEDFAVYYCQQWSSNPWTFGQGTKVEIK ) reads 0.01

Quick note, corrected association response for IgG1-CD134-ABBV368 (antibody, INN chains, looked up, V domains shown, IgG1) VH: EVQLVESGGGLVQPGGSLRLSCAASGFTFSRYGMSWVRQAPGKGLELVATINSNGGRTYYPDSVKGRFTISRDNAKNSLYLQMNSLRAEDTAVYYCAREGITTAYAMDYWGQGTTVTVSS VL: DIVMTQSPDSLAVSLGERATINCKASQSVDYDGDSYMHWYQQKPGQPPKLLIYAASILESGVPDRFSGSGSGTDFTLTISSLQAEDVAVYYCQQSNEDPRTFGGGTKVEIK landed at 0.01

corrected association response measured on IgG1-CD134-MEDI0562 (antibody, INN chains, looked up, V domains shown, IgG1) VH: QVQLQESGPGLVKPSQTLSLTCAVYGGSFSSGYWNWIRKHPGKGLEYIGYISYNGITYHNPSLKSRITINRDTSKNQYSLQLNSVTPEDTAVYYCARYKYDYDGGHAMDYWGQGTLVTVSS VL: DIQMTQSPSSLSASVGDRVTITCRASQDISNYLNWYQQKPGKAPKLLIYYTSKLHSGVPSRFSGSGSGTDYTLTISSLQPEDFATYYCQQGSALPWTFGQGTKVEIK = 0.32

Entry IgG1-CD134-RG7888 (antibody, INN chains, looked up, V domains shown, IgG1) VH: EVQLVQSGAEVKKPGASVKVSCKASGYTFTDSYMSWVRQAPGQGLEWIGDMYPDNGDSSYNQKFRERVTITRDTSTSTAYLELSSLRSEDTAVYYCVLAPRWYFSVWGQGTLVTVSS VL: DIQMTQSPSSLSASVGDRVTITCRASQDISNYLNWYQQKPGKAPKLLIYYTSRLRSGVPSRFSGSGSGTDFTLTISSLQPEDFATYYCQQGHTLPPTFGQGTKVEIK ; corrected association response = 0.26
